Tested on: Huh7.5 cells
Test: Alamar Blue cell viability assay
Format: cell-based, human
Settings: 5 μM
Method: Antiviral Assays of Compounds. Subconfluent Huh7.5 cells were trypsinized and collected by centrifugation at 700 g for 5 min. […] Viral RNA replication was determined using Renilla (FL-J6/JFH-5′C19Rluc2AUbi) or firefly (Bart791-luc) luciferase assays, according to the manufacturer's (Promega) directions. The same samples subjected to the viability assay described below were analyzed in this assay. […] Luminescence was measured over 10 seconds with a 2-second delay using a Berthold LB 96 V luminometer. […]
recordedMetric: Cell Viability (%), alamar blue

Req: # get_value(readout= Cell Viability (%), alamar blue, system= Huh7.5 cells) for `CC(C)CN(C)c1nc(N)c(C(=O)Nc2ccccc2)nc1Cl`
Resp: >100%

Req: How about `CC(C)CN(C)c1nc(N)c(C(=O)NCc2ccccn2)nc1Cl.Cl` ?
Resp: >100%

Req: How about CC(C)CN(C)c1nc(N)c(C(=O)NCc2cccs2)nc1Cl [ID 150, 2,2,2-trifluoroacetate] ?
Resp: >100%

* * *

Please go through the items and note down their Cell Viability (%), alamar blue.
test system: Huh7.5 cells; assay: Alamar Blue cell viability assay; assay type: cell-based, human; settings: 5 μM
Form entry: value (%) — number only.

Req: # get_value(readout= Cell Viability (%), alamar blue, system= Huh7.5 cells) for Cc1ccncc1NC(=O)c1nc(Cl)c(N(C)c2ccccc2)nc1N [ID 465, 2,2,2-trifluoroacetate]
Resp: 89

Req: How about `CC(C)CN(C)c1nc(N)c(C(=O)Nc2nncs2)nc1Cl.Cl` ?
Resp: 88

Req: How about Cc1ccncc1NC(=O)c1cnc(N(C)CC(C)C)cn1 [ID 414, 2,2,2-trifluoroacetate] ?
Resp: 100

Req: How about `CC(C)CN(C)c1nc(N)c(C(=O)NC2CCCCC2)nc1Cl.O=C(O)C(F)(F)F` ?
Resp: 68

Req: How about `CC(C)CN(C)c1nc(N)c(C(=O)Nc2cccnc2)nc1Cl.Cl` ?
Resp: 48

Req: How about `Cc1cc(NC(=O)c2nc(Cl)c(N(C)CC(C)C)nc2N)no1.Cl` ?
Resp: 96

Req: How about Cc1ccncc1NC(=O)c1nc(Cl)c(N(C)Cc2ccccc2)nc1N [ID 424, 2,2,2-trifluoroacetate] ?
Resp: 98
